assay: viability loss with induced miR-34 in A549 – imaging, A549 dox-inducible miR-34, nuclei and caspase counts, primary screen (AID 1347080); details: A549 miR-34 inducible, Hoechst nuclei count, 48 h; measured here: relative caspase fold change +Dox/-Dox; also: test concentration not given here
measuredMetric: fold change
Reply with the value as a number alone.

Identify measured fold change corresponding to CSc1nc(N)c2ncn([C@@H]3O[C@H](COP(=O)(O)OP(=O)(O)O)[C@H](O)C3O)c2n1 (some centres undefined)
1.82

Check the records and state fold change for "CC(=NNC(=S)N1CCC1)c1ccccn1"
0.742

Look up fold change of CC1(C)S[C@H]2C(NC(=O)C(NC(=O)N3CCN(S(C)(=O)=O)C3=O)c3ccccc3)C(=O)N2C1C(=O)O (some centres undefined) and report it.
0.658

Quickly give me recorded fold change for COC(=O)NC(C(=O)NC(Cc1ccccc1)C(O)CN(Cc1ccc(-c2ccccn2)cc1)NC(=O)C(NC(=O)OC)C(C)(C)C)C(C)(C)C (centres undefined)
0.981

Fill in fold change for record OC1(CNc2ncnc3nc[nH]c23)C2CC3CC(C2)CC1C3 (centres undefined)
0.873

Supply fold change value. Item: "Oc1cccc(-c2nc(N3CCOCC3)c3sccc3n2)c1"
0.61

Entry "CCCCCCCCCCCCCCSCC(=O)O" needs its fold change filled in; supply it.
1.37

Return the recorded fold change value; entry: "CCN(CC)C(=O)c1c(NC(=O)c2cccs2)sc2c1CCCC2"
0.802

Please indicate fold change recorded for CCC1OC(=O)CC(O)C(C)C(O[C@H]2OC(C)C(O[C@H]3C[C@@](C)(O)C(O)C(C)O3)C(N(C)C)C2O)C(CC=O)CC(C)C(=O)C=CC(C)=CC1COC1OC(C)C(O)C(OC)C1OC (some centres undefined)
0.768

* * *

Give measured z-score for each item. Keep answers brief.
test: MELAS cybrid and Rieske KO viability enhancers – cell-based, MELAS cybrids, Rieske KO mouse fibroblasts, CellTiter-Glo, primary screen (AID 1508586); conditions: Rieske KO mouse fibroblast survival, low glucose, CellTiter-Glo 72 h;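 also: test concentration not given here; z relative to plate mean and SD of compound and empty wells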
Lab note: record just the number, no unit beside it.

Indicate its recorded z-score; the compound in question is "CCN1C(=O)N(C)C(=O)C12CCN(Cc1ccc(Oc3ncccn3)cc1)CC2"
-0.536

Read off the recorded z-score for CC1(C)S[C@@H]2C(NC(=O)C(N)c3ccccc3)C(=O)N2C1C(=O)O (stereo not given in full)
-0.225

Return value of z-score for input "O=C(Nc1nncs1)NC1Cc2ccccc2C1" , no commentary.
-0.221

// Input: "O=C(O)CCC(=O)Nc1ccc(Br)cn1" . Output its z-score only.
-0.113

// Input: COc1ccc(CCNCC(O)COc2cccc(C)c2)cc1OC (stereo not given) . Output its z-score only.
0.533

In one line, give reported z-score of the entry CC(C)[N+]1(C)[C@@H]2CC[C@H]1CC(OC(=O)C(CO)c1ccccc1)C2 (stereo not given in full) .
-0.158

For "COc1ccc(CSc2nnc(-c3ccc4c(c3)OCO4)o2)cc1F" , write its z-score.
-0.403

Note down z-score recorded for COC1C[C@H]2CCC(C)[C@@](O)(O2)C(=O)C(=O)N2CCCC[C@H]2C(=O)OC(C(C)CC2CCC(OC(=O)C(C)(CO)CO)C(OC)C2)CC(=O)C(C)C=C(C)C(O)C(OC)C(=O)C(C)CC(C)C=CC=CC=C1C (stereo not given in full)
0.402

Please give the documented z-score of "c1ccc(CNc2ncnc3nc[nH]c23)cc1"
0.15

Fill in z-score for record "CCCCc1ncc(CN2CCc3c(cc(-c4ccncc4)c(=O)n3C/C=C/c3ccccc3)C2)[nH]1"
-0.0119
